Task for the reader: assign each of the following molecules its reported kcat.
# method.summary: ATP-PPi exchange assay (amino acid activation)
# Format: biochemical
# condition.set: nsAA pAcF
# Procedure: A 25 μl ATP-PPi exchange reaction contained the following components: 100 mM HEPES-KOH (pH 7.5), 30 mM KCl, 10 mM MgCl2, 2 mM DTT, 2 mM KF, 2 mM NaPPi, 5 mM ATP, […], 2 μCi/μl of […] (PerkinElmer) and varied concentrations of amino acids (0.25, 0.5, 1.25, 2.5, 5, 10, and 20 mM, respectively). The reactions were incubated at 37° C. […] The ratio of ATP to PPi was determined to monitor reaction progress. […] The data were analyzed by GraFit 5.0 (Erithacus Software).

// recorded kcat for pAcFRS.1.t1: pAcFRS variant A167D, R257G, SEQ ID NO: 5 (protein) MDEFEMIKRNTSEIISEEELREVLKKDEKSALIGFEPSGKIHLGHYLQIKKMIDLQNAGFDIIILLADLHAYLNQKGELDEIRKIGDYNKKVFEAMGLKAKYVYGSEFQLDKDYTLNVYRLALKTTLKRARRSMELIAREDENPKVAEVIYPIMQVNGCHYRGVDVDVGGMEQRKIHMLARELLPKKVVCIHNPVLTGLDGEGKMSSSKGNFIAVDDSPEEIRAKIKKAYCPAGVVEGNPIMEIAKYFLEYPLTIKGPEKFGGDLTVNSYEELESLFKNKELHPMRLKNAVAEELIKILEPIRKRL : 6.12 ± 0.74 ×10^−2 s^−1

// recorded kcat for pAcFRS.2.t1: pAcFRS variant L65V, A167D, R257G, SEQ ID NO: 8 (protein) MDEFEMIKRNTSEIISEEELREVLKKDEKSALIGFEPSGKIHLGHYLQIKKMIDLQNAGFDIIIVLADLHAYLNQKGELDEIRKIGDYNKKVFEAMGLKAKYVYGSEFQLDKDYTLNVYRLALKTTLKRARRSMELIAREDENPKVAEVIYPIMQVNGCHYRGVDVDVGGMEQRKIHMLARELLPKKVVCIHNPVLTGLDGEGKMSSSKGNFIAVDDSPEEIRAKIKKAYCPAGVVEGNPIMEIAKYFLEYPLTIKGPEKFGGDLTVNSYEELESLFKNKELHPMRLKNAVAEELIKILEPIRKRL : 5.43 ± 0.54 ×10^−2 s^−1
